The following compounds are listed with their measured TGI values.
- Tested on: SN12C renal
- assay.details: NCI tumour cell line growth inhibition, 48 h

[
  {
    "compound": "CC1=NN(C(=O)CC(=O)Nc2ccccc2C)C(=O)C1N=Nc1ccc(C(=O)O)cc1 (stereo not drawn)",
    "subject.of.test": "SN12C renal",
    "measurement.name": "TGI",
    "data.value": "> 100 µM"
  }
]

Input: Form field: reported TGI of C/C(=N\NS(=O)(=O)c1ccc(C)cc1)C(CN1CCOCC1)C(c1ccccc1)c1c(O)c2ccccc2oc1=O (stereo not drawn)
Output: > 100 µM

Input: Form field: reported TGI of CC1=NN(c2ccccc2)C(=O)C1=C1SCCS1
Output: > 100 µM

Input: Form field: reported TGI of CC[C@H](C)[C@H]1NC(=O)[C@@H](N[C@](C)(O)[C@@H](N)CC(C)C)[C@@H](C)OC(=O)[C@H](Cc2ccc(OC)cc2)N(C)C(=O)[C@@H]2CCCN2C(=O)[C@H](CC(C)C)NC(=O)[C@@H](C)C(=O)[C@H](C(C)C)OC(=O)C[C@@H]1O
Output: 0.316 µM

Input: Form field: reported TGI of C=CC(Cl)(CBr)CCC(Br)=C(C)C (stereo not drawn)
Output: 33 µM

Input: Form field: reported TGI of S=C1SC(=Nc2ccccc2)C(=Nc2ccccc2)N1c1ccccc1
Output: > 100 µM

Input: Form field: reported TGI of COc1cc(C(=O)c2ccc3c(c2)OCO3)cc(OC)c1OC
Output: > 100 µM

Input: Form field: reported TGI of O=C1CC(c2ccc(N3CCOCC3)cc2)(c2ccsc2)NC(=O)C1Sc1ccccc1Cl (stereo not drawn)
Output: > 100 µM

* * *

- System: IGROV1 ovarian
- assay.details: NCI tumour cell line growth inhibition, 48 h
measurement.name: TGI

[
  {
    "molecule": "[O-]c1c2c(nn1-c1ccccc1)c1ccccc1c[n+]2Cc1ccccc1",
    "measurement.name": "TGI",
    "data.value": "> 100 µM"
  }
]

Moving on to the next molecule.
Input: Form field: reported TGI of Cc1nn(-c2nc3ccccc3s2)c(C)c1Oc1ccccc1O
Output: 35.8 µM

* * *

- Test system: HCC-2998 colon
- assay.details: NCI tumour cell line growth inhibition, 48 h
The following compounds are listed with their measured TGI values.

[
  {
    "compound": "COc1ccccc1OCC(=O)Nc1sc2c(c1C(N)=O)CCC2",
    "measurement.name": "TGI",
    "data.value": "> 100 µM"
  }
]

Input: What measured TGI is associated with C/C(CC(=O)Nc1ccc(Cl)c(Cl)c1)=N/NC(=O)C[n+]1ccccc1 on HCC-2998 colon?
Output: > 100 µM

* * *

- Test system: LOX IMVI melanoma
- assay.details: NCI tumour cell line growth inhibition, 48 h
The following compounds are listed with their measured GI50 values.

Consider the following illustrative entries.
[
  {
    "record.smiles": "CC1=C[C@H]2c3c(c(O)c(O)c4oc5c(C)cccc5c(=O)c34)[C@H](c3cc(O)c(O)c4oc5c(C)cccc5c(=O)c34)[C@H]2C(C)(C)C1",
    "GI50": "966 nM"
  },
  {
    "record.smiles": "C[C@@H]1CN(C(=O)c2ccc(NC(=O)c3cc(O[C@H](C)c4c(Cl)ccc(F)c4Cl)c(N)nn3)cc2)C[C@H](C)N1",
    "GI50": "1460 nM"
  },
  {
    "record.smiles": "CC(=O)[CH-]C(=O)c1ccccc1.CC(=O)[CH-]C(=O)c1ccccc1.CC[O-].CC[O-].[Zr+4]",
    "GI50": "> 100000 nM"
  },
  {
    "record.smiles": "COc1ccc2c(c1)C(=O)/C(=C/c1cccc(OCC(=O)Nc3nc4c(s3)CCCC4)c1)O2",
    "GI50": "24.8 nM"
  },
  {
    "record.smiles": "N#C/C(=C\\c1ccc(-c2ccc(Cl)cc2)o1)C(=O)Nc1ncc(Cc2ccc(Cl)cc2)s1",
    "GI50": "2620 nM"
  }
]

Input: Form field: reported GI50 of c1ccc(Cn2cc3c(c2-c2ccccc2)CCc2cnoc2-3)cc1
Output: 4230 nM

Input: Form field: reported GI50 of COc1ccc(N(CC(=O)NCCC[Te]c2ccccc2)C(=O)c2ccccc2)cc1
Output: 3690 nM

Input: Form field: reported GI50 of Cn1cncc1[C@@](N)(c1ccc(Cl)cc1)c1ccc2c(c1)c(-c1cccc(Cl)c1)cc(=O)n2C
Output: 1340 nM

* * *

- Test system: SK-MEL-5 melanoma
- assay.details: NCI tumour cell line growth inhibition, 48 h; in the data active means GI50 below about 0.43 µM; inactive means the rest
Can you answer with just one of these options? active, inactive

Consider the following illustrative entries.
[
  {
    "molecule": "Cn1ccnc1C(=O)/C=C/c1ccc(C(=O)Nc2ccc(Cl)cc2)cc1",
    "subject.of.test": "SK-MEL-5 melanoma",
    "class.label": "inactive"
  },
  {
    "molecule": "CC1=C[C@H]2c3c(c(O)c(O)c4oc5c(C)cccc5c(=O)c34)[C@H](c3cc(O)c(O)c4oc5c(C)cccc5c(=O)c34)[C@H]2C(C)(C)C1",
    "subject.of.test": "SK-MEL-5 melanoma",
    "class.label": "inactive"
  },
  {
    "molecule": "N#C/C(=C\\c1ccc(-c2ccc(Cl)cc2)o1)C(=O)Nc1ncc(Cc2ccc(Cl)cc2)s1",
    "subject.of.test": "SK-MEL-5 melanoma",
    "class.label": "inactive"
  },
  {
    "molecule": "O=C(Nc1ccccc1O)c1cccc(NC2=C(Cl)C(=O)N(Cc3ccccc3)C2=O)c1",
    "subject.of.test": "SK-MEL-5 melanoma",
    "class.label": "inactive"
  },
  {
    "molecule": "Cn1cc(-c2nc(-c3c[nH]c4ncccc34)cs2)c2cc(F)ccc21",
    "subject.of.test": "SK-MEL-5 melanoma",
    "class.label": "inactive"
  },
  {
    "molecule": "Oc1ccc2cc(Br)ccc2c1-c1c(O)ccc2cc(Br)ccc12",
    "subject.of.test": "SK-MEL-5 melanoma",
    "class.label": "inactive"
  },
  {
    "molecule": "COc1cc2nc(-c3cnc(N(C)C)nc3)nc(NC3CCN(Cc4ccccc4)CC3)c2cc1OC",
    "subject.of.test": "SK-MEL-5 melanoma",
    "class.label": "inactive"
  },
  {
    "molecule": "COc1ccc2c(c1)c(-c1ccc(-c3cn(S(=O)(=O)c4ccccc4)c4ccc(OC)cc34)s1)cn2S(=O)(=O)c1ccccc1",
    "subject.of.test": "SK-MEL-5 melanoma",
    "class.label": "inactive"
  }
]

Input: Lab log entry: CCC[CH2][Sn]1([CH2]CCC)[O]C(=O)c2cc(I)cc(I)c2[O]1 — outcome as called in the assay?
Output: inactive

Input: Lab log entry: COC(=O)NC1C(C)OC(OC2C/C=C(/C)C3C=CC4C(OC5CC(OC6CC(O)C(OC7CC(O)C(OC)C(C)O7)C(C)O6)C(O)C(C)O5)C(C)CC(C)C4C3(C)/C(O)=C3\C(=O)OC4(CC(C)C(CO)=CC4/C=C\2C)C3=O)CC1(C)[N+](=O)[O-] (stereo not given) — outcome as called in the assay?
Output: inactive

* * *

- System: U251 CNS
- assay.details: NCI tumour cell line growth inhibition, 48 h
measurement.name: TGI (µM)
Answer with a number only, understood to be in µM.

[
  {
    "compound": "COc1cc(O)cc(/C=C/c2ccc(O)cc2)c1",
    "result.unit": "µM",
    "TGI": 81.4
  },
  {
    "compound": "COC(=O)/C=C1/CCC2[C@@H](C(=O)CC3[C@]2(C)CCC[C@@]3(C)C(=O)OC)C1C (stereo not given in full)",
    "result.unit": "µM",
    "TGI": 29.5
  }
]

Input: Form field: reported TGI of CC(C)=CCC[C@H](C)[C@@H]1CC[C@]2(C)C3CC[C@]4(OC4(C)C)C(CCCO)[C@]3(C)CC[C@@]12C (stereo not given in full)
Output: 66.1

Input: Form field: reported TGI of C=C1C(=O)O[C@H]2[C@H]1CC/C(COC(=O)CCCCC(=O)OC/C1=C/CC[C@@]3(C)O[C@H]3[C@H]3OC(=O)C(=C)[C@@H]3CC1)=C\CC[C@@]1(C)O[C@@H]21
Output: 8.91

Input: Form field: reported TGI of CCc1n[nH]c(=S)n1/N=C\c1ccc(-c2ccccc2Cl)o1
Output: 97.4

Input: Form field: reported TGI of CCOC(=O)c1ccc(Nc2nc3cc(C(F)(F)F)ccc3nc2-c2ccccc2)cc1
Output: 49.5

Input: Form field: reported TGI of CN(C)c1ccc(N2Cc3ccccc3OC3=C2C(=O)c2c(O)ccc(O)c2C3=O)cn1
Output: 1.2

Input: Form field: reported TGI of COc1ccc2c(c1)C(=O)/C(=C/c1cccc(OCC(=O)Nc3nc4c(s3)CCCC4)c1)O2
Output: 4.97
